assayed.target: E. coli MurF (Escherichia coli, UniProt P11880)
Sequence (P11880 whole entry): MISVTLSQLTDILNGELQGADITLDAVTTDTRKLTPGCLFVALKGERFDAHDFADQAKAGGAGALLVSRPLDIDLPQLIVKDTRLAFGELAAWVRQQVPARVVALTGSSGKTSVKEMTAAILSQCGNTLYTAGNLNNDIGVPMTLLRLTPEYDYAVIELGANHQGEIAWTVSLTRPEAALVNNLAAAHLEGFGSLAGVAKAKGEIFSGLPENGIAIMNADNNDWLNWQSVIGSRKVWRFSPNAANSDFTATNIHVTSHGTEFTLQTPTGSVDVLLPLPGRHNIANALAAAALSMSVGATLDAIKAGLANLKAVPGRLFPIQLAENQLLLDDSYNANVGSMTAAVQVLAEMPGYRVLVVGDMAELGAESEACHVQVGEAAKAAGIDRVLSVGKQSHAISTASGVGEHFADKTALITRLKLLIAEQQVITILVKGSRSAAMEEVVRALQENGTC
test.protocol: biochemical
measurement.setup: 0.25 h, Table S1, PKIS screening; read-out: RA [%] at 100 µM MurF
Rule: measured remaining activity at 100 µM below 90% gets t; anything equal to or greater than 90% gets f.

Does the reported remaining activity at 100 µM of the following compound sit strictly below 90%? c1ccc(Nc2ncc(-c3ccccc3)o2)cc1 [GW549390X]
f

Here's an entry: Nc1nc(-c2ccc(F)cc2)c(-c2ccc3ncccc3n2)s1 [GW785804X] . Is its remaining activity at 100 µM below 90%?
t

Regarding CCn1c(-c2nonc2N)nc2c(C#CC(C)(C)O)ncc(OC3CCNCC3)c21 [GSK619487A] , kindly confirm whether its remaining activity at 100 µM is beneath 90%.
f

Here's an entry: Cc1ccc2c(-c3ccnc(Nc4ccc5c(c4)OCCO5)n3)c(-c3ccc(C(F)(F)F)cc3)nn2n1 [GW832467X] . Is its remaining activity at 100 µM below 90%?
t

Consider the compound CCCN1CCC(c2ccc(Nc3nc(Nc4cc(F)ccc4C(N)=O)c4cc[nH]c4n3)c(OC)c2)CC1 [GSK1326255A] . Is its remaining activity at 100 µM strictly less than 90%?
t

remaining activity at 100 µM strictly < 90% for this compound? CN(c1ccc(NC(=O)Nc2ccc(OC(F)(F)F)cc2)cc1)c1ccnc(Nc2cccc(S(N)(=O)=O)c2)n1 [GW806742X]
f

hey, is remaining activity at 100 µM for NC(=O)c1cc(-c2ccncc2)cc(-c2ccccc2)c1N [GSK625137A] lower than 90% or not?
t

A record lists CN1CCN(Cc2ccc(-c3cc4ncnc(Nc5ccc(OCc6cccc(F)c6)c(Cl)c5)c4s3)o2)CC1 [GW784684X] . Is its remaining activity at 100 µM below 90%?
t

is_below(remaining activity at 100 µM, 90%) for Cc1cccc(Nc2ncc(-c3ccccc3)o2)c1 [GW632046X] ?
f

Bench note: check whether CS(=O)(=O)CCNCc1cc(-c2cc3c(Nc4ccc(OCc5cccc(F)c5)c(Cl)c4)ncnc3s2)cs1 [GSK300014A] shows remaining activity at 100 µM below 90%
f

Lab log: compare recorded remaining activity at 100 µM with 90%; is it strictly lower for CN1CCC(n2cnc(-c3ccc(F)cc3)c2-c2ccnc(NCCO)n2)CC1 [SB-226879] ?
t

Find out if reported remaining activity at 100 µM for COc1cc2ncn(-c3cc(O[C@@H](C)c4ccccc4Cl)c(C(N)=O)s3)c2cc1OC [GSK237700A] is less than 90%
t

Strictly below 90% in remaining activity at 100 µM? CCc1cccc(NC(=O)Nc2ccc(Oc3ccc4nc(NC(=O)OC)[nH]c4c3)cc2)c1 [GW673715X]
t

# TODO verify remaining activity at 100 µM < 90% strictly for this compound: O=C(O[C@H]1CN[C@H](C#Cc2cc3ncnc(Nc4ccc(OCc5cccc(F)c5)c(Cl)c4)c3s2)C1)N1CCOCC1 [GW869810X]
t

Is the reported remaining activity at 100 µM for Cc1cc(Cl)cc2c1NC(=O)C2=NNc1ccc(S(N)(=O)=O)cc1 [GW279320X] strictly below 90%?
t

Regarding COc1ccc(-c2nn3ncccc3c2-c2ccnc(Nc3ccc(F)c(F)c3)n2)cc1 [GW827396X] , kindly confirm whether its remaining activity at 100 µM is beneath 90%.
t

Does the reported remaining activity at 100 µM of COc1c(C(N)=O)cc(-c2ccc(Cl)cc2)cc1-c1ccc(S(N)(=O)=O)cc1 [GSK711701A] stay below 90%?
f

====

assayed.target: E. coli MurD (Escherichia coli)
Sequence (P14900 whole entry): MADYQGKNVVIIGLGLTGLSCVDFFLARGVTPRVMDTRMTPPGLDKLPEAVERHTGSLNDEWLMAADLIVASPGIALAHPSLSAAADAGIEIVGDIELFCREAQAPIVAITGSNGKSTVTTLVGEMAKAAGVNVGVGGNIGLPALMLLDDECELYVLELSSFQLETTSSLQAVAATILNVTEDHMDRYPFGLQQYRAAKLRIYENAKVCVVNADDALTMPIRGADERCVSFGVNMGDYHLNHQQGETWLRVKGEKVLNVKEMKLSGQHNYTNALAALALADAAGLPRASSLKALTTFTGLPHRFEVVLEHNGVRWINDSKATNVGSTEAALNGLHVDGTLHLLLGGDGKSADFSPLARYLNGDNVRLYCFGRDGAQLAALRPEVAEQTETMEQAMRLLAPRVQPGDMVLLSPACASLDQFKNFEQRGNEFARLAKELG
test.protocol: biochemical
property.name: RA (%) MurD
Lab book: enter the figure in %, no units written.

# molecule CNC(=O)c1cncc(C=Cc2ccccc2Cl)c1 [Compound 11] ; its RA (%) MurD = 87

CCc1cccc(CC)c1C=Cc1cncc(C(=O)NC)c1 [Compound 12] has a reported RA (%) MurD of 74

Given item CNC(=O)c1cncc(C=Cc2c(Cl)cccc2Cl)c1 [Compound 10] , the value recorded as its RA (%) MurD is 80

RA (%) MurD reported for this molecule CNC(=O)Oc1cc(C)c(C=Cc2cncc(C(=O)NC)c2)c(C)c1 [Compound 13] : 69

The molecule listed as Cc1cc(-c2ccccn2)cc(C)c1C=Cc1cncc(-c2nn[nH]n2)c1 [Compound 6] shows RA (%) MurD equal to 83

For CNC(=O)c1cncc(C=Cc2ccccc2C)c1 [Compound 8] the molecule record lists RA (%) MurD as 91

The measured RA (%) MurD associated with Cc1cc(O)cc(C)c1C=Cc1cncc(C(=O)OC(C)(C)C)c1 [Compound 16] reads 96

For record COC(=O)c1cncc(C=Cc2c(C)cc(O)cc2C)c1 [Compound 15] the listed RA (%) MurD is 69

CNC(=O)c1cncc(C=Cc2c(C)cccc2C)c1 [Compound 9] yielded RA (%) MurD of 83

Query Cc1cc(O)cc(C)c1C=Cc1cncc(-c2nn[nH]n2)c1 [Compound 7] yields RA (%) MurD of 91

Measured RA (%) MurD of Cc1cc(O)cc(C)c1C=Cc1cncc(C(N)=O)c1 [Compound 14] : 89

====

assayed.target: E. coli MurF (Escherichia coli)
test.protocol: biochemical
measurement.setup: 0.25 h, Table S1, PKIS screening; read-out: RA [%] at 100 µM MurF
Binary call on remaining activity at 100 µM with cut-off 70%: strictly below means class 1, and equality or higher means class 0.

Is 70% strictly greater than the compound's reported remaining activity at 100 µM? compound: O=C1Nc2ccccc2/C1=C/Nc1ccc2[nH]c(=O)[nH]c2c1 [GW284408X]
class 0

Here's an entry: COc1cc(N2CCN(C(C)C)CC2)ccc1Nc1nc(Nc2cccc(F)c2C(=O)O)c2cc[nH]c2n1 [GSK1819799A] . Is its remaining activity at 100 µM below 70%?
class 1

I wonder whether Cc1cc(-c2ccccn2)cc(C)c1/C=C/c1cncc(-c2nn[nH]n2)c1 [GW459057A] has remaining activity at 100 µM below 70%. Can you tell?
class 0

Answer whether the compound CCn1c(-c2nonc2N)nc2ccncc21 [SB-738561] has remaining activity at 100 µM strictly less than 70%
class 0

Please check: remaining activity at 100 µM for CN(C)c1ccc2c(c1)/C(=C/Nc1ccc(S(N)(=O)=O)cc1)C(=O)N2 [GW416469X] , strictly under 70% or not?
class 0

# check: remaining activity at 100 µM < 70% for [O-][S+]1CCN(Cc2ccc(-c3ccc4ncnc(Nc5ccc(OCc6ccccc6)c(F)c5)c4c3)o2)CC1 [GW576924A]
class 1

Does the reported remaining activity at 100 µM of the following compound sit strictly below 70%? CN(C)C(=O)O[C@H]1CN[C@H](C#Cc2cc3ncnc(Nc4ccc(OCc5cccc(F)c5)c(Cl)c4)c3s2)C1 [GSK182497A]
class 0

Strictly below 70% in remaining activity at 100 µM? COc1cc2ncn(-c3cc(OCc4ccccc4C(F)(F)F)c(C(=O)N(C)C)s3)c2cc1OC [GSK1030062A]
class 1

Regarding Cc1cc(O)cc(C)c1/C=C/c1cncc(-c2nn[nH]n2)c1 [GW441806A] , kindly confirm whether its remaining activity at 100 µM is beneath 70%.
class 0

Regarding CNC(=O)c1cncc(/C=C/c2ccccc2C)c1 [GW445015X] , kindly confirm whether its remaining activity at 100 µM is beneath 70%.
class 0

Identify whether the compound COc1cc(C)c(N(C)C(=O)CN(C)C)cc1Nc1nc(Nc2cccc(F)c2C(N)=O)c2cc[nH]c2n1 [GSK2219385A] records remaining activity at 100 µM below 70%.
class 0

Strictly below 70%: is that where remaining activity at 100 µM of CCCN1CCC(Oc2cc(Nc3nc(Nc4cccc(F)c4C(N)=O)c4cc[nH]c4n3)c(OC)cc2Cl)CC1 [GSK1713088A] sits?
class 0

Determine whether this compound shows remaining activity at 100 µM lower than 70% (ties excluded): O=C(Nc1n[nH]c2cc(-c3cc(F)ccc3F)ccc12)C1CC1 [SB-735465]
class 0

Hi there! Is remaining activity at 100 µM for CCn1cc(-c2ccnc3[nH]ccc23)c(-c2cccc(NC(=O)Nc3ccc(OCc4ccccc4)cc3)c2)n1 [GSK718429A] below 70%, do you know?
class 0

Given Cc1cccc2c1NC(=O)C2=NNc1ccc(S(N)(=O)=O)cc1 [GW282536X] , is recorded remaining activity at 100 µM strictly lower than 70%?
class 1

====

assayed.target: E. coli MurF (Escherichia coli)
test.protocol: biochemical
measurement.setup: 0.25 h, Table S1, PKIS screening; read-out: RA [%] at 100 µM MurF
Record form. Attribute: remaining activity at 100 µM. Fill in for each entry.
// unit must come after the numeric part

Looking up O=S(=O)(CCOCc1ccc(-c2ccc3ncnc(Nc4ccc(OCc5cccc(F)c5)c(Cl)c4)c3c2)o1)c1ccccc1 [GW615311X] , I found its remaining activity at 100 µM recorded as 100%

Value of measured remaining activity at 100 µM for the entry NC(=O)c1cccc(Nc2nccc(Nc3cccc4[nH]ncc34)n2)c1 [GW782612X] : 77%

The recorded remaining activity at 100 µM for entry N#Cc1ccc2c(-c3ccnc(NC4CC4)n3)c(-c3ccc(F)cc3)nn2c1 [GW561436X] equals 77%

# compound CS(=O)(=O)Nc1ccc(N/C=C2\C(=O)Nc3ccccc32)cc1 [GW278681X] ; its remaining activity at 100 µM = 77%

Record CCc1ccc(Oc2nccc(-c3c(-c4ccc(F)cc4)ncn3C3CCNCC3)n2)cc1 [SB-242719] . Reported remaining activity at 100 µM: 80%

Record CNC(=O)c1cc(-c2ccc(F)cc2)cc(-c2ccc(S(=O)(=O)N3CCCC3)cc2)c1N [GSK635416A] , field remaining activity at 100 µM: 88%

Short answer for COc1cccc(-n2nc(C)c3c(N/N=C(\C)c4ccncc4)ncnc32)c1 [GW809885X] : remaining activity at 100 µM was 100%

Recorded result, Cc1ccc(C(=O)NC2CC2)cc1-c1ccc2[nH]ncc2c1 [GW820759X] , remaining activity at 100 µM: 86%

Entry CCN(CC)S(=O)(=O)c1ccc(OC)c(Nc2ncc(-c3ccccc3)o2)c1 [GW572401X] ; remaining activity at 100 µM = 82%

Quick note, remaining activity at 100 µM for CNC(=O)c1cncc(/C=C/c2ccccc2Cl)c1 [GW445017X] landed at 90%

O=C1NC(=O)C(c2cccc(Cl)c2)=C1Nc1ccc(Cl)c(C(=O)O)c1 [SB-409513] has a reported remaining activity at 100 µM of 78%
